Measured values drawn from paper PMC9352680 for this set.

Recorded measurements of pKd, one per entry
Molecular target: T1, PUF4 RNA-binding domain (Saccharomyces cerevisiae, UniProt P25339 537-888)
T1 sequence: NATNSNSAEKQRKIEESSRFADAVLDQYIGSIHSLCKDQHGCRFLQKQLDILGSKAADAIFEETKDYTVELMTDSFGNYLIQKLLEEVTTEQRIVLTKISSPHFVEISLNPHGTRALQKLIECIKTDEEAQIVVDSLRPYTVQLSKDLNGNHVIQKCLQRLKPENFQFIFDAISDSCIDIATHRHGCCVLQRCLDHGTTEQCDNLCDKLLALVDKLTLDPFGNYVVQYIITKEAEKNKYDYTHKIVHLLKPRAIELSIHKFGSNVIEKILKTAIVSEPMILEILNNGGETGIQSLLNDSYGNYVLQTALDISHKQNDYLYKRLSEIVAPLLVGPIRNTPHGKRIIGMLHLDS
Assay: Mg; RNA-MaP; 20 mM Na-HEPES pH 7.4, 30 mM KOAc, 0.75 mM MgCl2, 0.1% Tween-20, 5% glycerol, 0.1 mg/mL BSA, 2 mM DTT; 25 C; 0.0125-409.6 nM protein
Details: tags: N-His6-TEV cleaved; C-SNAP kept, Cy3B-labelled; label: tethered on chip by stalled RNA polymerase
pKd field: float, defined as -log10 of concentration (mol/L).

Binder: UCUCUUUGUAACCUCUCUCUU (ssRNA) [Ic_S1_P4E.1_K4.1_C4.1_H4.1_A4.1_[T5A]_[A6C]_[T7C]_F4.1_[A9C]_T4.1]
Numeric Value: 7.05

Binder: UCUCUUUGUACCUUUUCUCUU (ssRNA) [Ic_S1_P4E.1_K4.1_C4.1_H4.1_A4.1_[T5C]_[A6C]_F4.1_[A9T]_T4.1]
Numeric Value: 7.46

Binder: Id_iii_S2_P5E.8_K5.4_C5.3_H5.1_A5.2_F5.1_T5.2_[A12G] (ssRNA) RNA: UUUGAUUAAUAUGAUAUCGUUCUUUCUUCUUGUAAUAUUAUGUUCUUUCUCGAUAUCAUAUUAAUCUUU
Numeric Value: 8.18

### Prompt Any idea what pKd was measured for UCUCUUUAUAUAUUAUUAUUUCUCUU (ssRNA) [Id_ii_S1_P5E.3_K5.2_C5.2_[C-2T]_[T-1A]_H5.2_A5.1_F5.1_T5.2_[A12T]] ?
### Response 7.75
